// provenance: patent EP4043466B1

Listed here: items and their measured IC50.
# Test system: Karpas 422 cells
# method notes: Karpas 422 cell viability, CTG (Cell Titre Glo) assay
# Assay type: cell-based, human
# applied conditions: Homo sapiens; Inhibition of proliferation of Karpas 422 cells (EZH2 Y641N); viability measured Day 4, Day 7 or Day 11, time point of the tabulated values not stated

Q. Return value of IC50 for input CC(O)Cn1cc(-c2cnc(NCc3c(F)ccc4c3CCO4)n3cc(C#N)nc23)cn1 (centres unmarked) , no commentary.
A. > 0.5 µM

Q. Return value of IC50 for input N#Cc1cn2c(NCc3c(F)ccc4c3CCO4)ncc(-c3ccc(CN4CCCC4)cc3)c2n1 , no commentary.
A. ≤ 0.25 µM

Q. Return value of IC50 for input Cn1nc(C(=O)N2CCOCC2)cc1-c1cnc(NCc2c(F)ccc3c2CCO3)n2cc(C#N)nc12 , no commentary.
A. ≤ 0.25 µM

Q. Return value of IC50 for input CN(C)Cc1ccc(-c2cnc(NCc3c(F)ccc4c3CCO4)n3cc(C#N)nc23)c(C#N)c1 , no commentary.
A. ≤ 0.25 µM

Q. Return value of IC50 for input Cc1ncccc1-c1cnc(NCc2c(F)ccc3occc23)n2cc(C(N)=O)nc12 , no commentary.
A. > 0.5 µM

Q. Return value of IC50 for input N#Cc1cn2c(NCc3c(F)ccc4c3CCO4)ncc(-c3ccc(CN4CCOCC4)cc3)c2n1 , no commentary.
A. ≤ 0.25 µM

Q. Return value of IC50 for input COC(=O)c1ccc(-c2cnc(NCc3c(F)ccc4c3CCO4)n3cc(C#N)nc23)cn1 , no commentary.
A. 0.25 to 0.5 µM

Q. Return value of IC50 for input CN1CCN(C(=O)c2ccc(-c3cnc(NCc4c(F)ccc5c4CCO5)n4cc(C#N)nc34)cc2)CC1 , no commentary.
A. ≤ 0.25 µM

Q. Return value of IC50 for input N#Cc1cn2c(NCc3c(F)ccc4c3CCO4)ncc(-c3ccc4c(c3)CCNC4)c2n1 , no commentary.
A. 0.25 to 0.5 µM

Q. Return value of IC50 for input COCCOc1ccc(-c2cnc(NCc3c(F)ccc4c3CCO4)n3cc(C#N)nc23)cc1 , no commentary.
A. ≤ 0.25 µM

Q. Return value of IC50 for input Cc1cc(C(=O)N(C)C)ncc1-c1cnc(NCc2c(F)ccc3c2CCO3)n2cc(C#N)nc12 , no commentary.
A. ≤ 0.25 µM

Q. Return value of IC50 for input Cc1cc(C2CCCN2)ccc1-c1cnc(NCc2c(F)ccc3c2CCO3)n2cc(C#N)nc12 (single isomer, unassigned) , no commentary.
A. ≤ 0.25 µM

Q. Return value of IC50 for input CN(C)C(=O)c1ccc(-c2cnc(NCc3c(F)ccc4c3CCO4)n3cc(C#N)nc23)c(Cl)c1 , no commentary.
A. ≤ 0.25 µM

Q. Return value of IC50 for input Cc1ncccc1-c1cnc(NCc2c(F)ccc3c2CCO3)n2cc(C#N)nc12 , no commentary.
A. ≤ 0.25 µM
